Data provenance is patent US11319298B2.

- Target of assay: UniProt:P08173
- Sequence (P08173 whole entry): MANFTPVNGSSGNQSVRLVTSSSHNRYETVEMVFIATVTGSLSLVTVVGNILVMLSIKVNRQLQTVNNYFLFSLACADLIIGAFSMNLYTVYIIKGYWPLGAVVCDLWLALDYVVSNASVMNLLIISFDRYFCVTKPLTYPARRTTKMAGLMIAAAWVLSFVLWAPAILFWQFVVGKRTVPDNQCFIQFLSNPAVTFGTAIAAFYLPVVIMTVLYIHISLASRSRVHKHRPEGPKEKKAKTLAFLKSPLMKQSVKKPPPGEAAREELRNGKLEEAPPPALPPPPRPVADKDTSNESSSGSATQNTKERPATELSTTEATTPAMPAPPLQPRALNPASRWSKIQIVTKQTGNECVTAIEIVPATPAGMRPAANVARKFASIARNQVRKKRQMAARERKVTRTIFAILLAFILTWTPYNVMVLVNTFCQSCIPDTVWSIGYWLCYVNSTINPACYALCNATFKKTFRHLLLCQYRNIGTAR
- Assay remarks: human FLIPR-based M4 PAM assay, CHO-K1 cells stably transfected with human M4 receptor and chimeric G-protein Gαqi5
- Experimental parameters: inflection point (IP) of dose response curve; acetylcholine added at 20% of maximum response; CHO-K1 human M4/Gαqi5, FLIPR Tetra
Could you please mark YES for values of EC50 below 100 nM and NO for values at or above it?

Compound	Class
COc1ccc(OC2CCN(c3nnc(C(=O)NC4CCc5ncccc5C4)cc3C)CC2)cn1 (stereo not drawn)	NO
COc1ccc(O[C@@H]2CCN(c3nc(C(N)=O)nc(Cl)c3C)C[C@@H]2F)cn1	NO
COc1ccc(OC2CCN(c3nc(C)nc(C)c3C)CC2)cn1	YES
Cc1cc(C(=O)NCc2ccncc2)nnc1N1CCC(Oc2ccc3c(c2)C(=O)N(C)C3)CC1	NO
Cc1c(Cl)nc(CO)nc1N1CCC(Oc2cccc(C#N)c2)CC1	YES
Cc1ncc(C)c(N2CCC(Oc3ccc(OCC(C)(C)N)nc3)CC2)n1	NO

is_below(EC50, 100 nM) for COc1ccc(OC2CCN(c3ncnc(N4CCC(F)(F)C4)c3C)CC2)cn1 ?
NO

is_below(EC50, 100 nM) for Cc1c(Cl)nc(CO)nc1N1CCC(Oc2ccc3c(c2)C(=O)N(C)C3)CC1 ?
NO

is_below(EC50, 100 nM) for Cc1cc(C(=O)NC2CCc3cccnc3C2)nnc1N1CCC(Oc2cccc(C#N)c2)CC1 (stereo not drawn) ?
NO
